measuredTarget: TF-VIIa (recombinant soluble tissue factor and recombinant human factor VIIa) (Homo sapiens)
Construct: conversion of coagulation factor VII to VIIa by Xa; soluble TF made in house in E. coli
Sequence (P08709 213-466 limits assumed): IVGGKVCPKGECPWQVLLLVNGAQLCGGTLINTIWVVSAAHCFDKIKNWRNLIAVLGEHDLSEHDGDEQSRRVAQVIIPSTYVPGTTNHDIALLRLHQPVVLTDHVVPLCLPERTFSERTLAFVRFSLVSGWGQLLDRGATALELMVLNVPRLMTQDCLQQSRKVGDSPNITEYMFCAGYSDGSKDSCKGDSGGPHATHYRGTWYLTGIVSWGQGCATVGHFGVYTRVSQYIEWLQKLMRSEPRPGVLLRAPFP
Sequence (P08709 61-212 partner limits assumed): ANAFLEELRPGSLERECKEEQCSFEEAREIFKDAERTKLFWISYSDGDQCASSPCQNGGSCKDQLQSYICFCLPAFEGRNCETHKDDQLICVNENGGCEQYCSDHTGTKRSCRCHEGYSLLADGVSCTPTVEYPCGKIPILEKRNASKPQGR
Sequence (P13726 33-251 partner limits assumed): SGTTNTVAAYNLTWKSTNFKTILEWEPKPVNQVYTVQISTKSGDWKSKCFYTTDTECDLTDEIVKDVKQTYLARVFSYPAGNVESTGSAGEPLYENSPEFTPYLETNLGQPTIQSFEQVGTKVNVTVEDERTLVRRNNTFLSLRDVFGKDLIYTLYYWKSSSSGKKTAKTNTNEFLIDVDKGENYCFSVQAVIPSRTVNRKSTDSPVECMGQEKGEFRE
methodSummary: TF-VIIa Assay
pIC50: −log10 of the molar value.
measuredEndpoint: pIC50

Exam item: For the molecule shown here, N=C(N)c1cccc(CNC(=O)Cn2c(-c3ccccc3)ncc(NS(=O)(=O)Cc3ccccc3)c2=O)c1 , give the reported pIC50.
Marked response: < 4.52
